Values from patent US20180008535A1

Test: PK variables for quinagolide administered by an intravaginal ring in clinical study 000155
Format: in vivo, healthy women
Conditions: female, human, plasma, 1200 ug; 1200 μg intravaginal ring; median
readout_label: Tmax (h)
Field format: number, assumed h, no unit text.

Ask: Item under review: CCCN1C[C@@H](NS(=O)(=O)N(CC)CC)C[C@@H]2Cc3c(O)cccc3C[C@H]21 [quinagolide] . Reported Tmax?
Result: 36

====

Assay: PK variables for quinagolide administered by an intravaginal ring in clinical study 000155
Type: in vivo, healthy women
Conditions: female, human, plasma, 800 ug; 800 μg intravaginal ring; median
Method: Following intravaginal administration the plasma concentration of quinagolide increased to reach a maximum at approximately 37-39 hours with a subsequent slow decline until the ring was removed (see FIG. 15). The mean time for reaching a maximum serum concentration was similar between all three dose groups but with substantial inter-individual variation. […]
readout_label: Tmax (h)
// note: answer is a bare numeric in h

Ask: Entry under review: CCCN1C[C@@H](NS(=O)(=O)N(CC)CC)C[C@@H]2Cc3c(O)cccc3C[C@H]21 [quinagolide] . Reported Tmax?
Result: 48

====

Assay: PK variables for quinagolide administered by an intravaginal ring in clinical study 000155
Type: in vivo, healthy women
Conditions: female, human, plasma, 400 ug; 400 μg intravaginal ring; median
readout_label: Tmax
In your response, the unit should come after the numeric value.

Ask: State the recorded Tmax for this entry: CCCN1C[C@@H](NS(=O)(=O)N(CC)CC)C[C@@H]2Cc3c(O)cccc3C[C@H]21 [quinagolide]
Result: 48 h

====

Experiment: PK variables for quinagolide administered by an intravaginal ring in clinical study 000155
Type: in vivo, healthy women
Settings: female, human, plasma, 800 ug; 800 μg intravaginal ring; Mean (SD)
readout_label: Cmax (pg/mL)
Please respond with the number in pg/mL and leave the unit unwritten.

Ask: Form field: reported Cmax of CCCN1C[C@@H](NS(=O)(=O)N(CC)CC)C[C@@H]2Cc3c(O)cccc3C[C@H]21 [quinagolide]
Result: 5.3

====

Assay: PK variables for quinagolide administered by an intravaginal ring in clinical study 000155
Format: in vivo, healthy women
Details: female, human, plasma, 400 ug; 400 μg intravaginal ring; Mean (SD)
readout_label: Cmax (pg/mL)
Just the number please, in pg/mL, no unit attached.

Ask: For CCCN1C[C@@H](NS(=O)(=O)N(CC)CC)C[C@@H]2Cc3c(O)cccc3C[C@H]21 [quinagolide] , what is its reported Cmax?
Result: 3.4

====

Experiment: PK variables for quinagolide administered by an intravaginal ring in clinical study 000155
Assay type: in vivo, healthy women
Details: female, human, plasma, 1200 ug; 1200 μg intravaginal ring; Mean (SD)
readout_label: Cmax

Ask: Requested read-out: Cmax. Entry: CCCN1C[C@@H](NS(=O)(=O)N(CC)CC)C[C@@H]2Cc3c(O)cccc3C[C@H]21 [quinagolide]
Result: 0.0109 ng/mL

====

Assay: PK variables for quinagolide administered by an intravaginal ring in clinical study 000155
Assay type: in vivo, healthy women
Details: female, human, plasma, other: intravaginal ring, 400 ug; printed in the 400 μg line only; Mean (SD); read-out: T½ (converted)
readout_label: half-life
Quote the value and follow it with the unit of measurement.

Ask: // lookup half-life for CCCN1C[C@@H](NS(=O)(=O)N(CC)CC)C[C@@H]2Cc3c(O)cccc3C[C@H]21 [quinagolide]
Result: 840 min

====

Assay: Plasma concentration of quinagolide and active metabolites in sheep with intravaginal rings
Type: in vivo
Conditions: first and second sheep trials
readout_label: quinagolide concentration in the plasma at any point during the study

Ask: Endpoint output: quinagolide concentration in the plasma at any point during the study of CCCN1C[C@@H](NS(=O)(=O)N(CC)CC)C[C@@H]2Cc3c(O)cccc3C[C@H]21 [quinagolide] . Value?
Result: ≤ 50 pg/mL
